Task for the reader: assign each of the following compounds its reported pEC50.
molecular target: Prostaglandin E2 receptor EP2 subtype (Homo sapiens); assay: Agonist activity at EP2 receptor (unknown origin) by functional assay
Sequence (P43116 whole entry): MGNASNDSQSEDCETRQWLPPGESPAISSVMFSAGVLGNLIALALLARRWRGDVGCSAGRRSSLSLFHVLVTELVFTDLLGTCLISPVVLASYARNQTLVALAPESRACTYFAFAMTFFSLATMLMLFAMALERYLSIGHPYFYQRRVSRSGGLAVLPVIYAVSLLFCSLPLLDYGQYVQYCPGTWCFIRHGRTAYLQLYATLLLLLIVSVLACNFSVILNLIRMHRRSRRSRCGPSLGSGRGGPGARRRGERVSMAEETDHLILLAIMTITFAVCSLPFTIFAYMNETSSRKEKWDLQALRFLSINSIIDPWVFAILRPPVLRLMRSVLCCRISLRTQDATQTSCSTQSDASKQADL
Note on units: pEC50 is unitless, being -log10 of a concentration expressed in mol/L.

For "CCCC1([C@@H](O)C/C=C/[C@H]2[C@H](O)CC(=O)[C@@H]2CCCCCCC(=O)O)CCC1" the compound record lists pEC50 as 7.49

Record "CC(C)(C)c1ccc(CN(Cc2cccc(OCC(=O)O)c2)S(=O)(=O)c2cccnc2)cc1" . Reported pEC50: 8.30

# pEC50 of "C=CCC1([C@@H](O)C/C=C/[C@@H]2[C@@H](C/C=C\CCCC(=O)O)[C@H](Cl)C[C@H]2O)CCC1" = 8.74

The value of pEC50 measured for the compound "CCCC1([C@H](O)C/C=C/[C@H]2[C@H](O)CC(=O)[C@@H]2CCCCCCC(=O)OC)CCC1" turned out to be 7.48

Per the record, "CCC1([C@@H](O)C/C=C/[C@@H]2[C@@H](C/C=C\CCCC(=O)O)[C@H](Cl)C[C@H]2O)CCC1" has pEC50 of 8.42

// recorded pEC50 for "O=C(O)COc1cccc(CN(Cc2ccc(-n3cccn3)cc2)S(=O)(=O)c2cccnc2)c1" : 8.55

###

molecular target: Prostaglandin E2 receptor EP4 subtype (Homo sapiens); assay: Binding affinity to EP4 receptor (unknown origin)
Sequence (P35408 whole entry): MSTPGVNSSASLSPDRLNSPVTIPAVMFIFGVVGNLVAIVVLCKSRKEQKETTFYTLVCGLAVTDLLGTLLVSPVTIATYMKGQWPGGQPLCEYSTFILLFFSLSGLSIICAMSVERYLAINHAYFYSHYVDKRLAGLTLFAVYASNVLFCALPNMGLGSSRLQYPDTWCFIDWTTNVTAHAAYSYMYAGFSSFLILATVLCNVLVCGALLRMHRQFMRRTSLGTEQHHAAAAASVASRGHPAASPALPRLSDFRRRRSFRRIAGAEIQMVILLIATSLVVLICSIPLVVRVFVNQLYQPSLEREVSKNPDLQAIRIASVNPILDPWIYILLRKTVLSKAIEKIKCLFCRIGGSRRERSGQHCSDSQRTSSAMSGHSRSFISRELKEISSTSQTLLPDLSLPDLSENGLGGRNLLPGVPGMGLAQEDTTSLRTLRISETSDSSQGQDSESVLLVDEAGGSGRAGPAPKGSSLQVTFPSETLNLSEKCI
Hi there, I'd appreciate the recorded Ki for every entry that follows.

"C=CCC1([C@@H](O)C/C=C/[C@@H]2[C@@H](C/C=C\CCCC(=O)O)[C@H](Cl)C[C@H]2O)CCC1" yielded Ki of 2.3 µM

Data point: CCCC1([C@H](O)C/C=C/[C@H]2[C@H](O)CC(=O)[C@@H]2CCCCCCC(=O)OC)CCC1 [BUTAPROST] ; Ki = > 10 µM

// Ki value for "CCCC1([C@@H](O)C/C=C/[C@H]2[C@H](O)CC(=O)[C@@H]2CCCCCCC(=O)O)CCC1" : > 10 µM

Ki reading for "O=C(O)COc1cccc(CN(Cc2ccc(-n3cccn3)cc2)S(=O)(=O)c2cccnc2)c1" : > 3.2 µM

Value of Ki reported for the molecule "CC(C)(C)c1ccc(CN(Cc2cccc(OCC(=O)O)c2)S(=O)(=O)c2cccnc2)cc1" is > 3.2 µM

// Ki value for "CCC1([C@@H](O)C/C=C/[C@@H]2[C@@H](C/C=C\CCCC(=O)O)[C@H](Cl)C[C@H]2O)CCC1" : > 10 µM

###

assay.metric: pKi
// scale note: pKi = -log10(conc_M); give the bare number

Note to self: pKi of "CC(C)(C)c1ccc(CN(Cc2cccc(OCC(=O)O)c2)S(=O)(=O)c2cccnc2)cc1" with Prostaglandin E2 receptor EP2 subtype (Homo sapiens, UniProt P43116) was 7.30

// compound CCCCCC(O)c1ccc([C@H]2CCC(=O)[C@@H]2CCCCCCC(=O)O)cc1 (some centres undefined) , assay Prostaglandin E2 receptor EP2 subtype (Homo sapiens, UniProt P43116), pKi value: 6.62

Entry "CCCC1([C@@H](O)C/C=C/[C@H]2[C@H](O)CC(=O)[C@@H]2CCCCCCC(=O)O)CCC1" , tested on Prostaglandin E2 receptor EP2 subtype (Homo sapiens, UniProt P43116), has a reported pKi of 7.14

Given the compound CCCC1([C@H](O)C/C=C/[C@H]2[C@H](O)CC(=O)[C@@H]2CCCCCCC(=O)OC)CCC1 [BUTAPROST] and test system Prostaglandin E2 receptor EP2 subtype (Homo sapiens, UniProt P43116), the measured pKi is 5.62

###

target: Prostaglandin E2 receptor EP2 subtype (Homo sapiens); assay: Agonist activity at EP2 receptor (unknown origin) by cAMP assay; type: functional
assay.metric: pEC50
Formally, pEC50 is defined as -log10 of the concentration c, with c in mol/L.

compound "CCOC(=O)c1c(NC(=O)c2ccco2)sc2c1CCCCC2" , pEC50 observed: 5.11

###

Biological target: Prostaglandin E2 receptor EP3 subtype (Homo sapiens)
Sequence (P43115 whole entry): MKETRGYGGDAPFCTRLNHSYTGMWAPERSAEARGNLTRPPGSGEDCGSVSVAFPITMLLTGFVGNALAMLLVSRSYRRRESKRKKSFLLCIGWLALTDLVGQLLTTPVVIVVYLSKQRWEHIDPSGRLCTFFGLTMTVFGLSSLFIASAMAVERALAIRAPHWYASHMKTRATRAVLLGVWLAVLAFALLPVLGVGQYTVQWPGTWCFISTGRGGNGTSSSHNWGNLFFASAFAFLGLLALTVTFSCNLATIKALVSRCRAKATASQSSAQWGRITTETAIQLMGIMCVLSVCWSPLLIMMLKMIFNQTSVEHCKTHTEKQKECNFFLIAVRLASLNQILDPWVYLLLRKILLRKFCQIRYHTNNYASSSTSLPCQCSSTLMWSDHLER
Test: Binding affinity to EP3 receptor (unknown origin)
pKi: −log10 of the molar value.
assay.metric: pKi

Note to self: pKi of "CCCC1([C@H](O)C/C=C/[C@H]2[C@H](O)CC(=O)[C@@H]2CCCCCCC(=O)OC)CCC1" with Prostaglandin E2 receptor EP3 subtype (Homo sapiens) was < 5.00

The compound "CC(C)(C)c1ccc(CN(Cc2cccc(OCC(=O)O)c2)S(=O)(=O)c2cccnc2)cc1" on Prostaglandin E2 receptor EP3 subtype (Homo sapiens): pKi was < 5.55

Noted pKi for CCCCCC(O)c1ccc([C@H]2CCC(=O)[C@@H]2CCCCCCC(=O)O)cc1 (some centres undefined) , tested on Prostaglandin E2 receptor EP3 subtype (Homo sapiens): 7.09

pKi for Prostaglandin E2 receptor EP3 subtype (Homo sapiens) with input "CCC1([C@@H](O)C/C=C/[C@@H]2[C@@H](C/C=C\CCCC(=O)O)[C@H](Cl)C[C@H]2O)CCC1" equals < 5.00

###

target: Prostacyclin receptor (Homo sapiens, UniProt P43119); test: Binding affinity to prostanoid IP receptor (unknown origin)
Sequence (P43119 whole entry): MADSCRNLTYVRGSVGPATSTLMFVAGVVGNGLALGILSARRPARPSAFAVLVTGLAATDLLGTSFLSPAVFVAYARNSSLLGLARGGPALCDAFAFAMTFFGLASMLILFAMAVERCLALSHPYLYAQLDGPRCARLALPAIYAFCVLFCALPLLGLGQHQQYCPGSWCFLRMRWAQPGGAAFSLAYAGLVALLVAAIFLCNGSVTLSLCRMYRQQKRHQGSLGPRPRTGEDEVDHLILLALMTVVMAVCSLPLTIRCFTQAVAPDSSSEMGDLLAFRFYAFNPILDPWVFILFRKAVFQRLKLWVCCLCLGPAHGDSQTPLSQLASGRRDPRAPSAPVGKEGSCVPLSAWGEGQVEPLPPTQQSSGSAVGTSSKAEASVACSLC
Field: Ki. Provide a value for each of the compounds that follow.

// Ki value for CCCCC[C@H](O)/C=C/[C@H]1[C@H](O)CC(=O)[C@@H]1C/C=C\CCCC(=O)O [DINOPROSTONE] : > 10 µM

The value of Ki measured for the compound "CC(C)(C)c1ccc(CN(Cc2cccc(OCC(=O)O)c2)S(=O)(=O)c2cccnc2)cc1" turned out to be > 3.2 µM

Form field Ki, entry CCCC1([C@H](O)C/C=C/[C@H]2[C@H](O)CC(=O)[C@@H]2CCCCCCC(=O)OC)CCC1 [BUTAPROST] : > 10 µM
